pIC50: −log10 of the molar value.
Literature compilation of pIC50 measurements on Histone deacetylase 7 (Homo sapiens, UniProt Q8WUI4).

Here is how some compounds turned out for pIC50.
Query: Please look up its pIC50: `Fc1ccc(C2(Nc3ncc(-c4nnc(C(F)F)o4)cn3)CC2)c(Cl)c1`
Result: < 4.52

Query: Another: CC1(C)C[C@@H]2Cc3c(F)cc(C(=O)NO)cc3CN2C1 (single isomer, unassigned)
Result: 5.00 to 6.00

Query: Check `CC(C)(Nc1ncc(-c2nnc(C(F)F)o2)cn1)c1ccc(F)cc1` too.
Result: < 4.52

Query: Now the same for `Cc1ccc(S(=O)(=O)Nc2ccc(/C=C/C(=O)Nc3ccccc3N)cc2)cc1`
Result: 4.70

Query: Can you check `Cn1c(N)nc2cc(-c3nnn(Cc4ccc(-c5nnc(C(F)F)o5)cc4)n3)ccc21` next?
Result: < 4.52

Others:
Query: GET /values?readout=pIC50&item= `Fc1ccc(C2(Nc3ncc(-c4nnc(C(F)F)o4)cn3)CC2)cc1`
Result: < 4.52

Query: Query `O=C(NO)c1cc(F)c2c(c1)CCN(Cc1ccccc1)C2` next
Result: 5.00 to 6.00

Query: And `O=C(Nc1cccc(-c2cn(Cc3ccc(-c4nnc(C(F)F)o4)c(F)c3)nn2)c1)N1CCOCC1` ?
Result: < 4.52

Query: What about this compound? `O=C(NO)c1cc(F)c(Cn2nnc(-c3scc4c3OCCO4)n2)c(F)c1`
Result: 5.88

Query: Can you handle `O=C(NO)c1ccc(Cn2nnc(-c3ccc(C(F)(F)F)cc3)n2)cc1` next?
Result: 5.18

Query: // same read-out, input: `O=C(NO)c1ccc(CN2CC3CCC(C2)O3)c(F)c1`
Result: 6.00 to 7.00

Query: Record: `O=C(NO)c1ccc(CN2CCC3(CCCCC3)C2)c(F)c1`
Result: 5.00 to 6.00

Query: // same read-out, input: O=C(NO)c1ccc2c(c1)C[C@H]1COCC(=O)N1C2 (single isomer, unassigned)
Result: 4.00 to 5.00

Query: Now the compound `COc1ccc(NCc2ccc(C(=O)Nc3ccccc3N)cc2)cc1OC`
Result: 4.35

Query: Please answer likewise for C[C@@H]1CC[C@H]2c3c(F)cc(C(=O)NO)cc3CCN12 (single isomer, unassigned)
Result: 6.00 to 7.00

Query: Field entry: `COc1ccc2c(c1)C(=O)N(CCCCCC(=O)NO)c1ccccc1S2(=O)=O`
Result: 5.02

Query: Would you kindly repeat that for O=C(NO)c1cc(F)c2c(c1)CCN1CCCC[C@@H]21 (single isomer, unassigned) ?
Result: 5.00 to 6.00

Query: And the next one, `O=C(NO)c1cc(F)c(Cn2nnnc2-c2ccccn2)c(F)c1` ?
Result: 6.21

Query: What do we get for O=C(NO)c1ccc(CN2C[C@@H]3CC[C@H]2CO3)c(F)c1 (single isomer, unassigned) ?
Result: 5.00 to 6.00

Query: Entry `FC(F)c1nnc(-c2ccc(Cn3cnc(-c4ccc(NC5=NCCN5)cc4)c3)nc2)o1` please
Result: < 4.52

Query: Consider next the compound `O=C(NO)c1cc(F)c2c(c1)CN(CC13CC4CC(CC(C4)C1)C3)C2` in the same way.
Result: 5.00 to 6.00

Query: Same question, `CCCCc1nc2cc(/C=C/C(=O)NO)ccc2n1CCN(C)C` this time
Result: < 4.40

Query: Another compound to look at: Fc1ccc(C(CC(F)(F)F)Nc2ncc(-c3nnc(C(F)F)o3)cn2)cc1 (stereo not shown)
Result: < 4.52
